target: Farnesyl pyrophosphate synthase (Homo sapiens) (UniProt P14324); assay: Inhibition of recombinant human C-terminal His6-tagged FPPS expressed in Escherichia coli BL21 at 100 uM using DMAPP and IPP as substrates pretreated for 15 mins followed by substrates addition and measured after 1 hr by colorimetric method relative to control
Binary classification by inhibition, with 30% as an inclusive lower bound for Criterion met; all other cases are Criterion not met.

Compound | Target of assay | Discrete label
CC(Nc1ncc2ccccc2n1)C(O)(P(=O)(O)O)P(=O)(O)O (racemic) | Farnesyl pyrophosphate synthase (Homo sapiens) (UniProt P14324) | Criterion met
O=P(O)(O)C(O)(CSc1nc2ccccc2s1)P(=O)(O)O | Farnesyl pyrophosphate synthase (Homo sapiens) (UniProt P14324) | Criterion not met
O=P(O)(O)C(O)(CNc1ncnc2ccccc12)P(=O)(O)O | Farnesyl pyrophosphate synthase (Homo sapiens) (UniProt P14324) | Criterion met
O=P(O)(O)C(O)(CSc1nc2ccccc2[nH]1)P(=O)(O)O | Farnesyl pyrophosphate synthase (Homo sapiens) (UniProt P14324) | Criterion not met
O=P(O)(O)C(O)(CCNc1ncc2ccccc2n1)P(=O)(O)O | Farnesyl pyrophosphate synthase (Homo sapiens) (UniProt P14324) | Criterion met
O=P(O)(O)C(O)(CCCCc1ncnc2ccccc12)P(=O)(O)O | Farnesyl pyrophosphate synthase (Homo sapiens) (UniProt P14324) | Criterion not met

###

Target: Farnesyl pyrophosphate synthase (Homo sapiens) (UniProt P14324)
Sequence (whole entry): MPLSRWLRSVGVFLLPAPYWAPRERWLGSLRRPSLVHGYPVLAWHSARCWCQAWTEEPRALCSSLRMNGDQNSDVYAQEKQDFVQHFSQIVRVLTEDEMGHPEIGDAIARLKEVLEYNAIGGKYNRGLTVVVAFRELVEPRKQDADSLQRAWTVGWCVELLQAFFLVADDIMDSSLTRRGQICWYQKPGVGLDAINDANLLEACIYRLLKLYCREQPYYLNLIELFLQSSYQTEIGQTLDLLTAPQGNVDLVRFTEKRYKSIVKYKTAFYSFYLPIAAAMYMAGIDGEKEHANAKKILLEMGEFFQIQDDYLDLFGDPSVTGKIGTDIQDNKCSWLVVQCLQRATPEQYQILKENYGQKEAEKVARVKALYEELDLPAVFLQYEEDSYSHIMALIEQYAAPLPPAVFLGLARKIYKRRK
Assay: Inhibition of recombinant human C-terminal His6-tagged FPPS expressed in Escherichia coli BL21 at 100 uM using DMAPP and IPP as substrates pretreated for 15 mins followed by substrates addition and measured after 1 hr by colorimetric method relative to control

Compound | inhibition
O=P(O)(O)C(O)(CNc1ncccn1)P(=O)(O)O | 96%
O=P(O)(O)C(O)(CCNc1ncccn1)P(=O)(O)O | 54%
O=P(O)(O)C(O)(CCNc1ncnc2ccccc12)P(=O)(O)O | 56%
O=P(O)(O)C(O)(CCCNc1ncc2ccccc2n1)P(=O)(O)O | 30%
O=P(O)(O)C(O)(CCNc1nc(-c2ccccc2)nc2ccccc12)P(=O)(O)O | 25%
CC(Nc1ncnc2ccccc12)C(O)(P(=O)(O)O)P(=O)(O)O (racemic) | 56%
O=P(O)(O)C(O)(CCCNc1ncccn1)P(=O)(O)O | 43%
O=P(O)(O)C(O)(CCCCc1ncc2ccccc2n1)P(=O)(O)O | 48%
O=P(O)(O)C(O)(CCCNc1ncnc2ccccc12)P(=O)(O)O | 25%
O=P(O)(O)C(O)(CNc1nc(-c2ccccc2)nc2ccccc12)P(=O)(O)O | 21%
O=P(O)(O)C(O)(CNc1ncc2ccccc2n1)P(=O)(O)O | 39.9%
O=P(O)(O)C(O)(CCCCc1ncccn1)P(=O)(O)O | 51%

###

tested on: RAW264.7; test: Antiproliferative activity against mouse RAW264.7 cells assessed as change in cell proliferation at 100 uM after 72 hrs by crystal violet staining based assay relative to control; format: functional

Molecule | Activity
O=P(O)(O)C(O)(CCCCc1ncccn1)P(=O)(O)O | -35.941%
O=P(O)(O)C(O)(CCCNc1ncccn1)P(=O)(O)O | -44.249%
O=P(O)(O)C(O)(CCNc1ncnc2ccccc12)P(=O)(O)O | -16.95%
CC(Nc1ncnc2ccccc12)C(O)(P(=O)(O)O)P(=O)(O)O (racemic) | -11.295%
O=P(O)(O)C(O)(CNc1nc(-c2ccccc2)nc2ccccc12)P(=O)(O)O | -51.774%
O=P(O)(O)C(O)(CCCCc1ncnc2ccccc12)P(=O)(O)O | -29.565%
O=P(O)(O)C(O)(CNc1ncc2ccccc2n1)P(=O)(O)O | -25.015%
O=P(O)(O)C(O)(CCCNc1ncc2ccccc2n1)P(=O)(O)O | -24.106%
CC(Nc1ncc2ccccc2n1)C(O)(P(=O)(O)O)P(=O)(O)O (racemic) | -16.783%
O=P(O)(O)C(O)(CNc1ncnc2ccccc12)P(=O)(O)O | -34.592%
O=P(O)(O)C(O)(CCNc1ncccn1)P(=O)(O)O | -18.897%
O=P(O)(O)C(O)(CNc1ncccn1)P(=O)(O)O | -47.365%
